Biological target: Hck (UniProt P08631)
Sequence (P08631 whole entry, looked up): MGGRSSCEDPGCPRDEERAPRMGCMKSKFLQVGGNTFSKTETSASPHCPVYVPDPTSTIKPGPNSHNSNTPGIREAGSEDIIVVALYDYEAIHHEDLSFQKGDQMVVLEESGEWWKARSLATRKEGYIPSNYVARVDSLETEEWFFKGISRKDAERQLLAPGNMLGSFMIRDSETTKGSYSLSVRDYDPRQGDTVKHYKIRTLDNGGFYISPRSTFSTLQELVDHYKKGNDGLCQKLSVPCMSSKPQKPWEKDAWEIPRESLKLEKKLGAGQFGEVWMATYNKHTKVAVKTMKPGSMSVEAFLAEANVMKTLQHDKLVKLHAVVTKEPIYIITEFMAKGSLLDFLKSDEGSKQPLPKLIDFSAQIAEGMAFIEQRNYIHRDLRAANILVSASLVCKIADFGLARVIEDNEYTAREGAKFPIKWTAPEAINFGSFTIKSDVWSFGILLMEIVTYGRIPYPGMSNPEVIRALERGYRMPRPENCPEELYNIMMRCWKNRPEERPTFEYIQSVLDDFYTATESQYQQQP
Assay: phosphorylation enrichment, bacterial display (enrichment ratio); higher = better substrate or ligand; peptides without Tyr show the background;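 note: 11-residue human phosphosite peptides and single-mutation variants displayed on the E. coli surface, counted by deep sequencing, each peptide's frequency after selection divided by its frequency in the unselected input library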;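 note: frequency after pTyr selection over input frequency; kinase dosed for 20-30% of maximal phosphorylation in three min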
endpoint.label: phosphorylation enrichment

[[record]]
input_sequence = "TIQIMFGCDVG [HLA-A_Y123_Y123F]"
endpoint_label = "phosphorylation enrichment"
val = 0.619

[[record]]
input_sequence = "IVGLLYRLLTE [SETX_Y1978]"
endpoint_label = "phosphorylation enrichment"
val = 0.596

[[record]]
input_sequence = "CTTIHYNYMHN [TP53_Y234_C238H]"
endpoint_label = "phosphorylation enrichment"
val = 0.407

[[record]]
input_sequence = "KEELAYLKKNH [KRT14_Y248]"
endpoint_label = "phosphorylation enrichment"
val = 0.541

[[record]]
input_sequence = "DVCKNYTEAKD [ALB_Y343_A344T]"
endpoint_label = "phosphorylation enrichment"
val = 0.494

[[record]]
input_sequence = "SNNFIYKTLGV [FAM83B_Y639_YF]"
endpoint_label = "phosphorylation enrichment"
val = 0.572

[[record]]
input_sequence = "VTVLDYDKIGK [SYT1_Y365]"
endpoint_label = "phosphorylation enrichment"
val = 0.648

[[record]]
input_sequence = "VKPENYRRLDV [VHL_Y175_I180V]"
endpoint_label = "phosphorylation enrichment"
val = 0.387

[[record]]
input_sequence = "KPNMNYDKLSR [FLI1_Y332]"
endpoint_label = "phosphorylation enrichment"
val = 0.454

[[record]]
input_sequence = "MSRDVYSTDYY [NTRK2_Y702]"
endpoint_label = "phosphorylation enrichment"
val = 1.73

[[record]]
input_sequence = "TQPSPYAVYLF [RPGRIP1_Y823_R827L]"
endpoint_label = "phosphorylation enrichment"
val = 3.73

[[record]]
input_sequence = "KKFVPYFDLFM [IPO5_Y530_E525K_YF]"
endpoint_label = "phosphorylation enrichment"
val = 0.571

[[record]]
input_sequence = "TTGGFYSYGGG [KRT24_Y120_A115T]"
endpoint_label = "phosphorylation enrichment"
val = 2.39

[[record]]
input_sequence = "ICANKYMVKSC [RPL10_Y75]"
endpoint_label = "phosphorylation enrichment"
val = 0.424

[[record]]
input_sequence = "DGKFSYLKVGH [GRM3_Y480_G475D_YF]"
endpoint_label = "phosphorylation enrichment"
val = 0.337

[[record]]
input_sequence = "SGDDGYAKDAK [TENM4_Y1530]"
endpoint_label = "phosphorylation enrichment"
val = 0.584

[[record]]
input_sequence = "IRTDAYVQAMT [RPE65_Y89_R91Q]"
endpoint_label = "phosphorylation enrichment"
val = 0.608

[[record]]
input_sequence = "VHFARYLAMNK [HARS1_Y138_P134H]"
endpoint_label = "phosphorylation enrichment"
val = 0.506

[[record]]
input_sequence = "YSMGCYEISLG [HMGCL_Y198]"
endpoint_label = "phosphorylation enrichment"
val = 1.22

[[record]]
input_sequence = "VVSMNYRVGAL [BCHE_Y174]"
endpoint_label = "phosphorylation enrichment"
val = 0.43

[[record]]
input_sequence = "YSNVLYRPRGP [TMIGD2_Y197_A202P]"
endpoint_label = "phosphorylation enrichment"
val = 0.69

[[record]]
input_sequence = "LGLDEYLDKLK [FMNL2_Y352]"
endpoint_label = "phosphorylation enrichment"
val = 0.587

[[record]]
input_sequence = "KSPDSYQKILP [ATM_Y1415_L1420P]"
endpoint_label = "phosphorylation enrichment"
val = 0.36

[[record]]
input_sequence = "FGLDRYQCDCT [PTGS1_Y54]"
endpoint_label = "phosphorylation enrichment"
val = 0.499

[[record]]
input_sequence = "FPHVISARLWR [SMAD4_Y95_Y95S]"
endpoint_label = "phosphorylation enrichment"
val = 0.429

[[record]]
input_sequence = "FSCLPYRRLAF [SLC52A2_Y305_G306R_YF]"
endpoint_label = "phosphorylation enrichment"
val = 0.432

[[record]]
input_sequence = "YRDALYKSMVD [PHEX_Y250_F252S]"
endpoint_label = "phosphorylation enrichment"
val = 0.525

[[record]]
input_sequence = "ESDFTYSSSFE [SRPK2_Y427_YF]"
endpoint_label = "phosphorylation enrichment"
val = 0.752

[[record]]
input_sequence = "PTTKTYLPHFD [HBA1_Y43_F44L]"
endpoint_label = "phosphorylation enrichment"
val = 0.389

